Each recorded value in this set is attributed to PubChem BioAssay AID248.

# Test system: L1210 leukemia ip in BDF1 mice, survival T/C
# assay-info: NCI In Vivo Anticancer Drug Screen. Data for tumor model L1210 Leukemia (intraperitoneal) in B6D2F1 (BDF1) mice
# particulars: endpoint: mean survival time; dose: 100.0 mg/kg/injection; schedule: Q04DX002 (ip); vehicle: gum acacia; higher = longer survival
Toxic doses and inconclusive results are not listed.
Kindly supply the reported T/C values for the records listed here.

IN: Find the recorded T/C belonging to `CN(C)c1ccccc1C(=O)N/N=C\c1ccc(Cl)cc1` and report it.
OUT: 96 % of control

IN: Item: CC(C)=CCCC1(C)C=Cc2c(c(C)cc3c2[nH]c2ccccc23)O1 (centres undefined)
OUT: 99 % of control

IN: Item: `O=P(NC1CCCCC1)(NC1CCCCC1)c1ccccc1`
OUT: 104 % of control

IN: Item: `CCOC(=S)SCc1ccc([N+](=O)[O-])cc1`
OUT: 97 % of control

---

Kindly supply the reported T/C values for the records listed here.
# Tested on: L1210 leukemia ip in BDF1 mice, survival T/C
# assay-info: NCI In Vivo Anticancer Drug Screen. Data for tumor model L1210 Leukemia (intraperitoneal) in B6D2F1 (BDF1) mice
# particulars: endpoint: mean survival time; dose: 50.0 mg/kg/injection; schedule: Q04DX002 (ip); vehicle: Klucel (hydroxypropylcellulose) (HPC); higher = longer survival
Inconclusive results and toxic doses are left out.

IN: What reported T/C corresponds to `O=c1[nH]c2ccccc2[nH]1` on L1210 leukemia ip in BDF1 mice, survival T/C?
OUT: 90 % of control

IN: Item: `NC(=S)Nc1cccnc1`
OUT: 91 % of control

IN: Item: CC(=O)OC1CCC2(C)C(=CCC3C2CCC2(C)C3CC3C(c4ccccc4Br)=NN(c4ccccc4)C32C#N)C1 (stereo unspecified)
OUT: 114 % of control

IN: Item: `CC1(C)C(=NNc2ccc([N+](=O)[O-])cc2[N+](=O)[O-])C(C)(C)C1(Cl)Cl`
OUT: 97 % of control

IN: Item: `CC(C)C(=O)NC1CCCCC1`
OUT: 111 % of control

IN: Item: `CC1(c2ccc3ccccc3c2)OCC2(CCCCC2)CO1`
OUT: 93 % of control

IN: Item: CCSc1ccc2c(cc1=O)C(NC(C)=O)CCc1cc(OC)c(OC)c(OC)c1-2 (stereo unspecified)
OUT: 102 % of control

IN: Item: COC1OC(COC(c2ccccc2)(c2ccccc2)c2ccccc2)C(OC(=S)SCc2ccccc2)C(OC)C1OC (stereo unspecified)
OUT: 104 % of control

IN: Item: `O=S(=O)(O)Nc1ccc(Cl)cc1`
OUT: 102 % of control

IN: Item: CC(=O)OCC(CS(=O)c1c(Cl)c(Cl)c(Cl)c(Cl)c1Cl)OC(C)=O (stereo unspecified)
OUT: 86 % of control

IN: Item: `O=C(COc1ccc(Cl)cc1Cl)Nc1ccc2ccccc2c1S(=O)(=O)O`
OUT: 98 % of control

---

# System: L1210 leukemia ip in BDF1 mice, survival T/C
# assay-info: NCI In Vivo Anticancer Drug Screen. Data for tumor model L1210 Leukemia (intraperitoneal) in B6D2F1 (BDF1) mice
# particulars: endpoint: mean survival time; dose: 50.0 mg/kg/injection; schedule: Q01DX005 (ip); vehicle: saline; higher = longer survival
Toxic doses and inconclusive results are not listed.
Kindly supply the reported T/C values for the records listed here.

IN: Find the recorded T/C belonging to CN(C)c1nc2c(N)ncnc2n1C1OC(CO)C(O)C1O (centres undefined) and report it.
OUT: 108 % of control

IN: Item: CCOC(=O)C1=C(C#N)C(C(=O)OCC)c2ncccc21 (centres undefined)
OUT: 97 % of control

IN: Item: NC(=S)N=Nc1c(O)n(C2OC(CO)C(O)C(O)C2O)c2ccccc12 (centres undefined)
OUT: 88 % of control

IN: Item: Nc1nc(SCc2ccc([N+](=O)[O-])cc2)c2nc(SCc3ccc([N+](=O)[O-])cc3)n(C3OC(CO)C(O)C3O)c2n1 (centres undefined)
OUT: 102 % of control

---

# Test system: L1210 leukemia ip in BDF1 mice, survival T/C
# assay-info: NCI In Vivo Anticancer Drug Screen. Data for tumor model L1210 Leukemia (intraperitoneal) in B6D2F1 (BDF1) mice
# particulars: endpoint: mean survival time; dose: 200.0 mg/kg/injection; schedule: Q01DX009 (ip); vehicle: other; higher = longer survival
Inconclusive results and toxic doses are left out.
Kindly supply the reported T/C values for the records listed here.

IN: Find the recorded T/C belonging to `CC(C)(C)NC(=O)Nc1ccc2ccccc2c1` and report it.
OUT: 89 % of control

IN: Item: Cc1cc(Cl)c(Cl)cc1NC(=O)C(Br)C(Br)c1ccccc1 (stereo unspecified)
OUT: 92 % of control

IN: Item: `CCCCOC(=O)c1ccc(NC(=O)Nc2c(C)cccc2C)cc1`
OUT: 89 % of control

IN: Item: `O=C(N=C=S)c1ccccc1`
OUT: 87 % of control

IN: Item: `O=C1C(N2CCOCC2)=C(c2ccccc2)c2ccccc21`
OUT: 93 % of control

IN: Item: `CSc1cc(C)c(O)c(CO)c1`
OUT: 97 % of control

---

# Test system: L1210 leukemia ip in BDF1 mice, survival T/C
# assay-info: NCI In Vivo Anticancer Drug Screen. Data for tumor model L1210 Leukemia (intraperitoneal) in B6D2F1 (BDF1) mice
# particulars: endpoint: mean survival time; dose: 75.0 mg/kg/injection; schedule: Q01DX001 (ip); vehicle: other; higher = longer survival
Toxic doses and inconclusive results are not listed.
readout-type: T/C

IN: Find the recorded T/C belonging to `CN(C)CCC(=O)c1cccc([N+](=O)[O-])c1` and report it.
OUT: 102 % of control

IN: Item: CCC(C#N)C1C=CCCC1 (stereo not drawn)
OUT: 107 % of control

IN: Item: `CN(C)C(=S)Sc1ccc([N+](=O)[O-])cc1`
OUT: 103 % of control

---

# System: L1210 leukemia ip in BDF1 mice, survival T/C
# assay-info: NCI In Vivo Anticancer Drug Screen. Data for tumor model L1210 Leukemia (intraperitoneal) in B6D2F1 (BDF1) mice
# particulars: endpoint: mean survival time; dose: 25.0 mg/kg/injection; schedule: Q04DX003 (ip); vehicle: saline; higher = longer survival
Inconclusive results and toxic doses are left out.
readout-type: T/C

IN: Find the recorded T/C belonging to `CCCSc1ccccn1` and report it.
OUT: 101 % of control

IN: Item: `Nc1ccc(N)c(N)n1`
OUT: 97 % of control

IN: Item: `C[N+](C)(C)CSSC[N+](C)(C)C`
OUT: 87 % of control

IN: Item: `COc1ccccc1C1N(C)CCCN1C`
OUT: 101 % of control

IN: Item: `C[S+](C)C`
OUT: 93 % of control

---

# Tested on: L1210 leukemia ip in BDF1 mice, survival T/C
# assay-info: NCI In Vivo Anticancer Drug Screen. Data for tumor model L1210 Leukemia (intraperitoneal) in B6D2F1 (BDF1) mice
# particulars: endpoint: mean survival time; dose: 100.0 mg/kg/injection; schedule: Q01DX009 (ip); vehicle: saline with Tween-80; higher = longer survival
Toxic doses and inconclusive results are not listed.
readout-type: T/C

IN: What reported T/C corresponds to `COc1cc(CC(=O)O)ccc1OCc1ccccc1` on L1210 leukemia ip in BDF1 mice, survival T/C?
OUT: 101 % of control

IN: Item: Cc1ccc(CC2NC(=O)NC2=O)cc1 (configuration not stated)
OUT: 104 % of control

IN: Item: `COc1ccc(/C=N/NC(=O)c2ccccc2Cl)cc1OC`
OUT: 91 % of control

IN: Item: CC(CCC(=O)O)C1CCC2C3CCC4CC(OC=O)CCC4(C)C3CC(OC=O)C12C (configuration not stated)
OUT: 92 % of control

IN: Item: `C=NCC#N`
OUT: 91 % of control

IN: Item: `COc1ccccc1OC(=O)Nc1ccccc1F`
OUT: 97 % of control

IN: Item: `CCC1(c2ccccc2)C(=O)N(Cl)C(=O)N(Cl)C1=O`
OUT: 93 % of control

IN: Item: COc1ccccc1N1CCN(CC(O)COc2ccccc2C(C)=O)CC1 (configuration not stated)
OUT: 109 % of control

IN: Item: `Fc1c(F)c(F)c(Oc2c(F)c(F)c(C(F)(F)F)c(F)c2F)c(F)c1F`
OUT: 102 % of control

IN: Item: `Nc1ccc2scnc2c1`
OUT: 98 % of control

IN: Item: `Cc1cc(CSc2ssc(=S)c2-c2ccccc2)c(CSc2ssc(=S)c2-c2ccccc2)cc1C`
OUT: 94 % of control

IN: Item: `COc1ccc(C(C)=O)c(O)c1C`
OUT: 111 % of control

IN: Item: `COc1cccc(CNc2cccc(Cl)c2Cl)c1OC`
OUT: 103 % of control

IN: Item: COc1ccc(NC(=O)C(CC(C(C)=O)C(=O)Nc2ccc(OC)cc2)C(C)=O)cc1 (configuration not stated)
OUT: 87 % of control

IN: Item: Cc1ccc(S(=O)(=O)OC2CC(C(=O)O)N(S(=O)(=O)c3ccc(C)cc3)C2)cc1 (configuration not stated)
OUT: 104 % of control

IN: Item: `COc1cc(C=NCCN=Cc2cc(OC)c(OC)c(OC)c2)cc(OC)c1OC`
OUT: 100 % of control

IN: Item: CC1(C)C(N2CCOCC2)CS1(=O)=O (configuration not stated)
OUT: 103 % of control
